Numbers sourced from paper PMC11249646.

# Study Target: CIB1 and αIIb interaction (CIB1-GST : F-αIIb peptide) (Homo sapiens)
# Construct: made in house; host or cells: BL-21 plus RIL cells (E. coli)
# Sequence (Q99828 1-191): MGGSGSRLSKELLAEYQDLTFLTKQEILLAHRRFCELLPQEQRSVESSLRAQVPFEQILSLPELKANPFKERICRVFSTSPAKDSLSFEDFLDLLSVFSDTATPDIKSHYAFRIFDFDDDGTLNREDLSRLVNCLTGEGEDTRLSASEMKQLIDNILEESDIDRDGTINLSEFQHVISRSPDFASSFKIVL
# Measurement Description: FP assay, 1536-well qHTS format (primary and confirmatory screen)
# Assay type: binding
# Settings: confirmatory screen, qHTS curve class; negative sign = inhibitory curve
Catalogue of molecules with associated Curve Class (confirmatory screen)
Respond numerically, and do not add a unit to the figure.

# Molecule, Curve Class (confirmatory screen)
measured = [
    ("Cc1coc2c1C(=O)C(=O)c1c-2ccc2c(C)cccc12 [NCGC00247624-03]", -2.2),
]

Let us examine a further case.
GET /values?readout=Curve Class (confirmatory screen)&item= Cc1ccc(C(=O)c2no[n+]([O-])c2C(=O)c2ccc(C)cc2)cc1.O=C(O)C(F)(F)F [NCGC00351163-01] -1.4

* * *

# Study Target: CIB1 and αIIb interaction (CIB1-GST : F-αIIb peptide) (Homo sapiens, UniProt Q99828)
# Construct: made in house; host or cells: BL-21 plus RIL cells (E. coli)
# Measurement Description: FP assay, 1536-well qHTS format (primary and confirmatory screen)
# Type: binding
# Settings: qHTS primary screen of LOPAC/NPACT libraries; negative sign = inhibitory curve
Readout Kind: Curve Class
Respond numerically, and do not add a unit to the figure.

# Compound, Study Target, Endpoint Result
records = [
    ("CCCc1c(OCCCOc2ccc(OCC(=O)O)cc2)ccc(C(C)=O)c1O [NCGC00015599-05]", "CIB1 and αIIb interaction (CIB1-GST : F-αIIb peptide) (Homo sapiens, UniProt Q99828)", -2.2),
    ("Cc1cc(OCCCS(C)(=O)=O)cc(C)c1-c1cccc(COc2ccc(-c3cc(=O)[nH][s+]3[O-])cc2)c1 (stereo not shown) [NCGC00485952-01]", "CIB1 and αIIb interaction (CIB1-GST : F-αIIb peptide) (Homo sapiens, UniProt Q99828)", -1.4),
    ("O=C(N[C@@H](Cc1ccccc1)C(=O)CCl)OCc1ccccc1 [NCGC00093742-04]", "CIB1 and αIIb interaction (CIB1-GST : F-αIIb peptide) (Homo sapiens, UniProt Q99828)", -1.2),
    ("N#C/C(=C\\c1ccc(O)c(O)c1)C(=O)NCCCNC(=O)/C(C#N)=C/c1ccc(O)c(O)c1 [NCGC00016027-04]", "CIB1 and αIIb interaction (CIB1-GST : F-αIIb peptide) (Homo sapiens, UniProt Q99828)", -1.2),
    ("COc1cc2c(cc1OC)-c1[nH]nc(Nc3cccc(F)c3)c1C2 [NCGC00343986-02]", "CIB1 and αIIb interaction (CIB1-GST : F-αIIb peptide) (Homo sapiens, UniProt Q99828)", -2.4),
]

GET /values?readout=Curve Class&item= CCOc1ccc(Cc2nc(-c3c(C)nc4ccccn34)cs2)cc1 [NCGC00485083-01] -2.4

Consider next the compound CC(C)(O)CC(=O)NCCn1ccc2ncnc(Nc3ccc(Oc4cccc(C(F)(F)F)c4)c(Cl)c3)c21 [NCGC00346699-06] in the same way. -2.4

Consider next the compound C=CC(=O)Nc1ccc(CN2C(=O)N(c3cc(OC)cc(OC)c3)Cc3cnc(Nc4ccc(N5CCN(C)CC5)cc4)nc32)cc1 [NCGC00484066-01] in the same way. -2.4
